Please go through the items and note down their sensor-assay potency score (higher = more potent).
Molecular target: C2orf79
Experiment: pooled miR-30 sensor sort-seq; sequence = guide strand; further: reference of the scale not given here
Conditions: shRNA
Answers are plain numbers.

In [3]: df
Out[3]:
           residue_string  study_target  reported_result
0  TATTGTACCAGGACCTGCGGCT       C2orf79           -0.203

I need sensor-assay potency score (higher = more potent) for every entry listed below, if you could help.
1. TTGCTCAAGCCACAGCATGTGG
2. TAACACCAAGTATTGTACCAGG
3. TTAGGGTGGTCTCATCTGGGGC

Reply:
1: -1.1; 2: -0.742; 3: -1.64

Could I get sensor-assay potency score (higher = more potent) for every one of these entries?
1. TTTAGGGTGGTCTCATCTGGGG
2. TTCGTAACACCAAGTATTGTAC
3. TACAAGTGGCGATATTCTCTGG

Reply:
1. -0.919
2. -0.56
3. -0.432

Query: # lookup: sensor-assay potency score (higher = more potent) of TTTCGTAACACCAAGTATTGTA
Reply: 0.279

###

Would you kindly list sensor-assay potency score (higher = more potent) for each of these sequences?
Target: KRTAP4-5
Assay: pooled miR-30 sensor sort-seq; sequence = guide strand
Conditions: shRNA

Quick one: give me sensor-assay potency score (higher = more potent) for each item below, same order please.
1. TGGAGATGCAGCAGCTAGGGTG
2. TGGTCTGGCAGCAGCAGGGGCG
3. ATGAATGTGATTGTCTGTCATT
4. TTTAATGAATGTGATTGTCTGT
5. TTAATGAATGTGATTGTCTGTC
6. TGCTCAGAGCTGACAGAGCCAC

Reply:
[-1.53, -1.72, -1.58, 0.174, 0.0544, -1.57]

###

Molecular target: RPS6KA5
Assay: pooled miR-30 sensor sort-seq; sequence = guide strand
Settings: shRNA
Hi there, I'd appreciate the recorded sensor-assay potency score (higher = more potent) for every entry that follows.

// worked examples, sensor-assay potency score (higher = more potent) included
In [3]: df
Out[3]:
           residue_string  reported_result
0  TTGCTGATTATTTTGACTGCAA           0.0107
1  TAATTCATCTCGAATGACTGGC            0.637
2  TTCTCCTAGATATCTCAGCTTG           -0.946
3  TCACTTTTTAATATTCTCCTAG             -0.3
4  TTCTTCATGATTTCCACCGCGC            0.302

The following sequences each have a reported value; give each one's sensor-assay potency score (higher = more potent).
1. TACAGCTGAAACAAGCTTCCTC
2. TACACGTCAAACTTCGGTCATG

Reply:
0.279
-0.748

Query: Tell me the measured sensor-assay potency score (higher = more potent) of TTTTTCTCCATCAACAGTGAAA , please.
Reply: -1.03

###

Biological target: SLC34A1
Experiment: pooled miR-30 sensor sort-seq; sequence = guide strand
Conditions: shRNA
Please mark yes if the recorded sensor-assay potency score (higher = more potent) is equal to or greater than 0.3, and no if it falls below.

>>> print(df.to_string())
           residue_string  group_label
0  TTGAGCATCTTGACTAGGAGGA          yes
1  TTGACTAGGAGGATGAGGCAGG          yes
2  TTCAGGGAGTGCATCCAGCGAG           no
3  TTGGAACCCAGTGTGAGCGGGT          yes

Query: Exam item: decide whether the reported sensor-assay potency score (higher = more potent) for TAGTCATGTGTACACGTGCAGA is at least 0.3.
Reply: no

Query: # repeat for TAGAGGACGGCAAACCAGCGGT
Reply: no

Query: One more sequence: TCTCAATGCTGATCACACCAAG
Reply: no
